Ref: ChEMBL document CHEMBL1123714

experiment: physchem
conditionParameters: 20% DMF
parameter: pKa

CN(C)c1cc(NS(C)(=O)=O)ccc1Nc1c2ccccc2nc2ccccc12 : 7.25
CNc1cc(NS(C)(=O)=O)ccc1Nc1c2ccccc2nc2ccccc12 : 7.47
